Values were extracted from the supplement of paper PMC11061612.

Test system: LC4-1 (B-Lymphoblastic Leukemia)
Experiment: combination Emax (second highest fraction inhibited in the dose matrix, 72 h); higher = more inhibition; extreme values may be limits of the assay
Rule: combination Emax of 0.9 or more gives label 1; anything lower gives label 0.

# compound, classification
rows = [
    ("Cc1c2c(nn1C)CSCc1cc(n(C)n1)CSc1cc(c3ccccc3c1)OCCCc1c(C(=O)O)n(C)c3c-2c(Cl)ccc13 [AZD5991] + CCN(CCO)CCCOc1ccc2c(Nc3cc(CC(=O)Nc4cccc(F)c4)[nH]n3)ncnc2c1 [AZD2811] (first compound max 1 µM, 7x7, partner max 1 µM)", "label 1"),
]

In the following, a different compound is considered.
INPUT: Assess whether reported combination Emax for Cc1cc2ncnn2cc1Nc1ncc2c(n1)n(C1CCOCC1)c(=O)n2C [AZD7648] + CCN(CCO)CCCOc1ccc2c(Nc3cc(CC(=O)Nc4cccc(F)c4)[nH]n3)ncnc2c1 [AZD2811] (first compound max 10 µM, 7x7, partner max 1 µM) sits at 0.9 or higher.
OUTPUT: label 0

====

Each entry below carries its recorded combination Emax.
System: GOTO (Neuroblastoma)
Experiment: combination Emax (second highest fraction inhibited in the dose matrix, 72 h); higher = more inhibition; extreme values may be limits of the assay

Please review the entries below; each comes with its answer.
# compound, tested.on, quantity, endpoint.value
rows = [
    ("CC1(C)CCC(CN2CCN(c3ccc(C(=O)NS(=O)(=O)c4ccc(NCC5CCOCC5)c([N+](=O)[O-])c4)c(Oc4cnc5[nH]ccc5c4)c3)CC2)=C(c2ccc(Cl)cc2)C1 [Venetoclax] + CCN(CCO)CCCOc1ccc2c(Nc3cc(CC(=O)Nc4cccc(F)c4)[nH]n3)ncnc2c1 [AZD2811] (first compound max 1 µM, 7x7, partner max 1 µM)", "GOTO (Neuroblastoma)", "combination Emax", 0.693),
    ("COc1nnc2ccc(N3CCC(c4ccc(OCCN5CCN(C)C(=O)[C@H]5C)cc4)CC3)nn12 [AZD5153] + Cn1cnc2c(F)c(Nc3ccc(Br)cc3Cl)c(C(=O)NOCCO)cc21 [Selumetinib] (first compound max 1 µM, 7x7, partner max 10 µM)", "GOTO (Neuroblastoma)", "combination Emax", 0.822),
]

Noted for Cc1c2c(nn1C)CSCc1cc(n(C)n1)CSc1cc(c3ccccc3c1)OCCCc1c(C(=O)O)n(C)c3c-2c(Cl)ccc13 [AZD5991] + Cc1cc2ncnn2cc1Nc1ncc2c(n1)n(C1CCOCC1)c(=O)n2C [AZD7648] (first compound max 1 µM, 7x7, partner max 10 µM) : its combination Emax reads 0.72

====

System: A704 (Kidney Carcinoma)
Assay: Bliss excess, mean over the matrix (fraction); higher = more synergy
Bliss excess listing for selected compounds.
Form rule: numeric answer, no unit written next to it.

Illustrative cases are given below, each with its answer.
# compound, Bliss excess
rows = [
    ("Cc1c2c(nn1C)CSCc1cc(n(C)n1)CSc1cc(c3ccccc3c1)OCCCc1c(C(=O)O)n(C)c3c-2c(Cl)ccc13 [AZD5991] + C1CN(CCC1(C(=O)N[C@@H](CCO)C2=CC=C(C=C2)Cl)N)C3=NC=NC4=C3C=CN4 [Capivasertib] (first compound max 1 µM, 7x7, partner max 3 µM)", -0.065),
    ("CN(C)CCCOc1ccc(-c2ccc3ncc4c(c3c2)n(C2CCOCC2)c(=O)n4C)cn1 [AZD0156] + CCN(CCO)CCCOc1ccc2c(Nc3cc(CC(=O)Nc4cccc(F)c4)[nH]n3)ncnc2c1 [AZD2811] (first compound max 1 µM, 7x7, partner max 1 µM)", -0.039),
    ("COc1nnc2ccc(N3CCC(c4ccc(OCCN5CCN(C)C(=O)[C@H]5C)cc4)CC3)nn12 [AZD5153] + CC1(C)CCC(CN2CCN(c3ccc(C(=O)NS(=O)(=O)c4ccc(NCC5CCOCC5)c([N+](=O)[O-])c4)c(Oc4cnc5[nH]ccc5c4)c3)CC2)=C(c2ccc(Cl)cc2)C1 [Venetoclax] (first compound max 1 µM, 7x7, partner max 1 µM)", -0.0016),
]

We next turn to a different compound, shown below.
Lab book: Bliss excess of C=CCn1c(=O)c2cnc(Nc3ccc(N4CCN(C)CC4)cc3)nc2n1-c1cccc(C(C)(C)O)n1 [AZD1775] + C1CN(CCC1(C(=O)N[C@@H](CCO)C2=CC=C(C=C2)Cl)N)C3=NC=NC4=C3C=CN4 [Capivasertib] (first compound max 3 µM, partner max 3 µM) noted as -0.0259

====

Test system: NCI-H2405 (Lung Adenocarcinoma)
Assay: combination Emax (second highest fraction inhibited in the dose matrix, 72 h); higher = more inhibition; extreme values may be limits of the assay
So basically every entry gets a class from its combination Emax, ranges being Low (below 0.2), Medium (0.2 to below 0.4), High (0.4 or more)

Example cases with answers are listed next.
# compound, classification
measured = [
    ("CC(=O)c1c(C)c2cnc(Nc3ccc(N4CCNCC4)cn3)nc2n(C2CCCC2)c1=O [Palbociclib] + CN(CC[C@H](CSC1=CC=CC=C1)NC2=C(C=C(C=C2)S(=O)(=O)NC(=O)C3=CC=C(C=C3)N4CCC(CC4)[C@H](C5=CC=CC=C5C6=CC=C(C=C6)Cl)O)S(=O)(=O)C(F)(F)F)CCO [AZD4320] (first compound max 10 µM, 7x7, partner max 1 µM)", "Medium"),
    ("CN(C)CCCOc1ccc(-c2ccc3ncc4c(c3c2)n(C2CCOCC2)c(=O)n4C)cn1 [AZD0156] + CCN(CCO)CCCOc1ccc2c(Nc3cc(CC(=O)Nc4cccc(F)c4)[nH]n3)ncnc2c1 [AZD2811] (first compound max 1 µM, 7x7, partner max 1 µM)", "Low"),
    ("Cc1c2c(nn1C)CSCc1cc(n(C)n1)CSc1cc(c3ccccc3c1)OCCCc1c(C(=O)O)n(C)c3c-2c(Cl)ccc13 [AZD5991] + CCN(CCO)CCCOc1ccc2c(Nc3cc(CC(=O)Nc4cccc(F)c4)[nH]n3)ncnc2c1 [AZD2811] (first compound max 1 µM, 7x7, partner max 1 µM)", "Medium"),
    ("COc1nnc2ccc(N3CCC(c4ccc(OCCN5CCN(C)C(=O)[C@H]5C)cc4)CC3)nn12 [AZD5153] + CN(CC[C@H](CSC1=CC=CC=C1)NC2=C(C=C(C=C2)S(=O)(=O)NC(=O)C3=CC=C(C=C3)N4CCC(CC4)[C@H](C5=CC=CC=C5C6=CC=C(C=C6)Cl)O)S(=O)(=O)C(F)(F)F)CCO [AZD4320] (first compound max 1 µM, 7x7, partner max 1 µM)", "High"),
    ("C[C@@H](c1ccc2nccn2c1)n1nnc2ncc(-c3cnn(C)c3)nc21 [Savolitinib] + Cc1c2c(nn1C)CSCc1cc(n(C)n1)CSc1cc(c3ccccc3c1)OCCCc1c(C(=O)O)n(C)c3c-2c(Cl)ccc13 [AZD5991] (first compound max 1 µM, 7x7, partner max 1 µM)", "Low"),
]

INPUT: Returns: class label. Input: C[C@@H]1COCCN1c1cc(C2([S@](C)(=N)=O)CC2)nc(-c2ccnc3[nH]ccc23)n1 [AZD6738] + O=C(c1cc(Cc2n[nH]c(=O)c3ccccc23)ccc1F)N1CCN(C(=O)C2CC2)CC1 [Olaparib] (first compound max 10 µM, 7x7, partner max 10 µM)
OUTPUT: Medium

INPUT: Quick check: band for CC1(C)CCC(CN2CCN(c3ccc(C(=O)NS(=O)(=O)c4ccc(NCC5CCOCC5)c([N+](=O)[O-])c4)c(Oc4cnc5[nH]ccc5c4)c3)CC2)=C(c2ccc(Cl)cc2)C1 [Venetoclax] + C1CN(CCC1(C(=O)N[C@@H](CCO)C2=CC=C(C=C2)Cl)N)C3=NC=NC4=C3C=CN4 [Capivasertib] (first compound max 1 µM, 7x7, partner max 3 µM)
OUTPUT: Low

====

Tested on: EBC-1 (Squamous Cell Lung Carcinoma)
Test: Bliss excess, mean over the matrix (fraction); higher = more synergy
Given measured Bliss excess, output yes if it is greater than or equal to -0.003 and no if not.

Look over these answered cases.
# compound, classification
records = [
    ("CN(C)CCCOc1ccc(-c2ccc3ncc4c(c3c2)n(C2CCOCC2)c(=O)n4C)cn1 [AZD0156] + C[C@@H]1COCCN1C2=NC(=NC(=C2)C3(CC3)[S@](=N)(=O)C)C4=C5C=CNC5=NC=C4 [AZD6738] (first compound max 1 µM, 7x7, partner max 10 µM)", "yes"),
    ("Cc1c2c(nn1C)CSCc1cc(n(C)n1)CSc1cc(c3ccccc3c1)OCCCc1c(C(=O)O)n(C)c3c-2c(Cl)ccc13 [AZD5991] + C=CCn1c(=O)c2cnc(Nc3ccc(N4CCN(C)CC4)cc3)nc2n1-c1cccc(C(C)(C)O)n1 [AZD1775] (first compound max 1 µM, partner max 1 µM)", "yes"),
    ("Cc1cc2ncnn2cc1Nc1ncc2c(n1)n(C1CCOCC1)c(=O)n2C [AZD7648] + O=C(c1cc(Cc2n[nH]c(=O)c3ccccc23)ccc1F)N1CCN(C(=O)C2CC2)CC1 [Olaparib] (first compound max 10 µM, 7x7, partner max 10 µM)", "no"),
]

INPUT: Decide: Bliss excess of COc1cccc(OCCCN)c1-c1cc(Nc2cnc(C#N)cn2)n[nH]1 [Prexasertib] + C=CCn1c(=O)c2cnc(Nc3ccc(N4CCN(C)CC4)cc3)nc2n1-c1cccc(C(C)(C)O)n1 [AZD1775] (first compound max 1 µM, partner max 1 µM) >= -0.003?
OUTPUT: yes

INPUT: Is Bliss excess for CCc1c2c(nc3ccc(O)cc13)-c1cc3c(c(=O)n1C2)COC(=O)[C@]3(O)CC [SN-38] + CN(C)CCCOc1ccc(-c2ccc3ncc4c(c3c2)n(C2CCOCC2)c(=O)n4C)cn1 [AZD0156] (first compound max 0.3 µM, 7x7, partner max 1 µM) at or above -0.003?
OUTPUT: no

INPUT: For this compound, is measured Bliss excess -0.003 or higher? C=CCn1c(=O)c2cnc(Nc3ccc(N4CCN(C)CC4)cc3)nc2n1-c1cccc(C(C)(C)O)n1 [AZD1775] + C1CN(CCC1(C(=O)N[C@@H](CCO)C2=CC=C(C=C2)Cl)N)C3=NC=NC4=C3C=CN4 [Capivasertib] (first compound max 3 µM, partner max 3 µM)
OUTPUT: no
